Task for the reader: assign each of the following binders its reported IC50.
# systemUnderTest: T1, human C-KIT-Fc (human, UniProt P10721 26-524)
# T1 construct: also called biotinylated human C-KIT-Fc; not shown: Fc part not described
# procedureSummary: HTRF competition vs Tb-h37M IgG1
Response body: numeric value in µg/mL, unit text excluded.

For the binder shown here, humanized h37M, human IgG1 (antibody, V domains shown, human IgG1; terbium-labelled as the tracer of the HTRF assays; also called C-KIT-h37M; h37M-IgG1) VH: QVQLVQSGAEVKKPGASVKLSCKASGYTFTDYYINWVRQAPGKGLEWIARIYPGSGNTYYNEKFKGRATLTADKSTSTAYMQLSSLRSEDTAVYFCARGVYYFDYWGQGTTVTVSS VL: DIVMTQSPSSLSASVGDRVTITCKASQNVRTNVAWYQQKPGKAPKALIYSASYRYSGVPDRFTGSGSGTDFTLTISSLQPEDFADYFCQQYNSYPRTFGGGTKVEIK , give the reported IC50.
0.016

Record: MH5.22 (antibody, IgG1, V domains shown, IgG1; also called C-KIT-MH5.22) VH: QVQLVQSGAEVKKPGASVKVSCKASGYTFTDFYMNWVRQAPGQGLEWMGRIYPASGNTYYAQKFQGRVTMTRDTSTSTVYMELSSLRSEDTAVYYCARGVWYYDYWGQGTLVTVSS VL: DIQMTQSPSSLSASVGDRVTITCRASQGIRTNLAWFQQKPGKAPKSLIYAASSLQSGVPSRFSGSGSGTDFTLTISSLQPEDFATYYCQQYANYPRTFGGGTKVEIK
0.134

Another binder to check: MH5.34 (antibody, IgG1, V domains shown, IgG1; also called C-KIT-MH5.34) VH: QVQLVQSGAEVKKPGASVKVSCKASGYTFTNYYMNWVRQAPGQGLEWMGRIYPASGNTYYAQKFQGRVTMTRDTSTSTVYMELSSLRSEDTAVYYCARGVWYFDSWGQGTLVTVSS VL: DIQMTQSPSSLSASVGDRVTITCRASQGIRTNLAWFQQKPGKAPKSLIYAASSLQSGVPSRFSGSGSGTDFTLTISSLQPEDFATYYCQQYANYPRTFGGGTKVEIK
0.839
